Measured values drawn from paper doi:10.1101/2025.09.25.678639 for this set.

- system: DND1 13-230 (del1-12);NANOS3 ZF (ZF1-ZF2) (human;human, UniProt Q8IYX4;P60323 13-230;55-113, del1-12|)
- Sequence (Q8IYX4 13-230, stated change not applied, chain 1 of 2): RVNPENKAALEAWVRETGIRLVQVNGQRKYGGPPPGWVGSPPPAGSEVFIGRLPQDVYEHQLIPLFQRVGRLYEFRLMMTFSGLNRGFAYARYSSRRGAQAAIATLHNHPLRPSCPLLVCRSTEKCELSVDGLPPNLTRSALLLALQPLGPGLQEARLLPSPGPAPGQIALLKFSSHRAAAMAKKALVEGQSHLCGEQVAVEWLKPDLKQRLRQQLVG
- Sequence (P60323 55-113, stated change not applied, chain 2 of 2): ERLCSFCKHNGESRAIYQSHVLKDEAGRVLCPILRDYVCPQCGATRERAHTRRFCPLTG
- assay.explanation: MST; DND1 titrated, 2 uM NANOS3 ZF; MST: 20 mM HEPES pH 7.4, 150 mM NaCl, 1 mM DTT, 0.05% Tween20 and 10 ug/mL yeast tRNA after 1:1 mixing, 5 nM Cy5-RNA, partner 2 uM final, 30 min at room temperature, measured at 25 C
- details: protein: recombinant;recombinant; tags: His6-SUMO removed by Ulp1;His6-SUMO removed by Ulp1; N-terminal Ser (residue 54) from BamHI site; copies: 1;1; label: 5'-Cy5
parameter: Kd (µM)
Answers are plain numbers, in µM.

Task: Specify reported Kd for the binder shown: AUAUGAAUUU (ssRNA) [CDK1 N3-DRE (Cy5)]
Output: 4
